# System: Neutrophil
# ASSAY METHOD TEXT: Reduction of chemotaxis in human neutrophils assessed as inhibition of fMLP-OMe-induced cell migration pretreated 10 mins before fMLP-OMe challenge
# Type: functional, cell-based
# EXPERIMENTAL CONDITIONS: read-out: IC50
pIC50: −log10 of the molar value.
READOUT NAME: pIC50

1) CCCC(O)Cn1ncc(C(=O)OCC)c1NC(=O)N1CCN(Cc2ccccc2)CC1 (stereo unspecified); 8.96
2) CCOC(=O)c1cnn(CC(O)c2ccccc2)c1NC(=O)Nc1cccc2ccccc12 (stereo unspecified); 8.11
3) CCOC(=O)c1cnn(CC(O)CC)c1NC(=O)N1CCN(Cc2ccccc2)CC1 (stereo unspecified); 5.70
4) CCOC(=O)c1cnn(CC(C)O)c1NC(=O)Nc1ccccc1F (stereo unspecified); 7.00
5) CCOC(=O)c1cnn(CC(O)CC)c1NC(=O)Nc1ccc(F)cc1 (stereo unspecified); 8.49
6) CCOC(=O)c1cnn(C)c1NC(=O)N1CCN(Cc2ccccc2)CC1; 6.82
7) CCOC(=O)c1cnn(CC(C)O)c1NC(=O)NC(C)C (stereo unspecified); 7.05
8) CCOC(=O)c1cnn(C)c1NC(=O)NC(C)C; 7.11
9) CCOC(=O)c1cnn(CC(O)CC)c1NC(=O)Nc1cccc(F)c1 (stereo unspecified); 9.72
10) CCOC(=O)c1cnn(CC(C)O)c1NC(=O)NCc1ccccc1 (stereo unspecified); 7.82
11) CCCC(O)Cn1ncc(C(=O)OCC)c1NC(=O)NC(C)C (stereo unspecified); 7.70
12) CCOC(=O)c1cnn(CC(C)O)c1NC(=O)Nc1cccc2ccccc12 (stereo unspecified); 8.01
13) CCCC(O)Cn1ncc(C(=O)OCC)c1NC(=O)NCc1ccccc1 (stereo unspecified); 9.37
14) CCOC(=O)c1cnn(C)c1NC(=O)NCc1ccccc1; 7.74
15) CCOC(=O)c1cnn(CC(O)CC)c1NC(=O)Nc1cccc2ccccc12 (stereo unspecified); 7.92
16) CCOC(=O)c1cnn(CC(O)CC)c1NC(=O)Nc1ccccc1F (stereo unspecified); 6.92

Provenance of the data: ChEMBL document CHEMBL1138627
